Reported IC50 values for the following molecules.
Target: human acetyl-CoA carboxylase 2 (ACC2) (Homo sapiens)
Construct: The cDNA encoding amino acids 144 to 2458 of human acetyl-CoA carboxylase 2; made in house; host or cells: Sf9 insect cells (baculovirus, pFastBac1)
Sequence (O00763 144-2458): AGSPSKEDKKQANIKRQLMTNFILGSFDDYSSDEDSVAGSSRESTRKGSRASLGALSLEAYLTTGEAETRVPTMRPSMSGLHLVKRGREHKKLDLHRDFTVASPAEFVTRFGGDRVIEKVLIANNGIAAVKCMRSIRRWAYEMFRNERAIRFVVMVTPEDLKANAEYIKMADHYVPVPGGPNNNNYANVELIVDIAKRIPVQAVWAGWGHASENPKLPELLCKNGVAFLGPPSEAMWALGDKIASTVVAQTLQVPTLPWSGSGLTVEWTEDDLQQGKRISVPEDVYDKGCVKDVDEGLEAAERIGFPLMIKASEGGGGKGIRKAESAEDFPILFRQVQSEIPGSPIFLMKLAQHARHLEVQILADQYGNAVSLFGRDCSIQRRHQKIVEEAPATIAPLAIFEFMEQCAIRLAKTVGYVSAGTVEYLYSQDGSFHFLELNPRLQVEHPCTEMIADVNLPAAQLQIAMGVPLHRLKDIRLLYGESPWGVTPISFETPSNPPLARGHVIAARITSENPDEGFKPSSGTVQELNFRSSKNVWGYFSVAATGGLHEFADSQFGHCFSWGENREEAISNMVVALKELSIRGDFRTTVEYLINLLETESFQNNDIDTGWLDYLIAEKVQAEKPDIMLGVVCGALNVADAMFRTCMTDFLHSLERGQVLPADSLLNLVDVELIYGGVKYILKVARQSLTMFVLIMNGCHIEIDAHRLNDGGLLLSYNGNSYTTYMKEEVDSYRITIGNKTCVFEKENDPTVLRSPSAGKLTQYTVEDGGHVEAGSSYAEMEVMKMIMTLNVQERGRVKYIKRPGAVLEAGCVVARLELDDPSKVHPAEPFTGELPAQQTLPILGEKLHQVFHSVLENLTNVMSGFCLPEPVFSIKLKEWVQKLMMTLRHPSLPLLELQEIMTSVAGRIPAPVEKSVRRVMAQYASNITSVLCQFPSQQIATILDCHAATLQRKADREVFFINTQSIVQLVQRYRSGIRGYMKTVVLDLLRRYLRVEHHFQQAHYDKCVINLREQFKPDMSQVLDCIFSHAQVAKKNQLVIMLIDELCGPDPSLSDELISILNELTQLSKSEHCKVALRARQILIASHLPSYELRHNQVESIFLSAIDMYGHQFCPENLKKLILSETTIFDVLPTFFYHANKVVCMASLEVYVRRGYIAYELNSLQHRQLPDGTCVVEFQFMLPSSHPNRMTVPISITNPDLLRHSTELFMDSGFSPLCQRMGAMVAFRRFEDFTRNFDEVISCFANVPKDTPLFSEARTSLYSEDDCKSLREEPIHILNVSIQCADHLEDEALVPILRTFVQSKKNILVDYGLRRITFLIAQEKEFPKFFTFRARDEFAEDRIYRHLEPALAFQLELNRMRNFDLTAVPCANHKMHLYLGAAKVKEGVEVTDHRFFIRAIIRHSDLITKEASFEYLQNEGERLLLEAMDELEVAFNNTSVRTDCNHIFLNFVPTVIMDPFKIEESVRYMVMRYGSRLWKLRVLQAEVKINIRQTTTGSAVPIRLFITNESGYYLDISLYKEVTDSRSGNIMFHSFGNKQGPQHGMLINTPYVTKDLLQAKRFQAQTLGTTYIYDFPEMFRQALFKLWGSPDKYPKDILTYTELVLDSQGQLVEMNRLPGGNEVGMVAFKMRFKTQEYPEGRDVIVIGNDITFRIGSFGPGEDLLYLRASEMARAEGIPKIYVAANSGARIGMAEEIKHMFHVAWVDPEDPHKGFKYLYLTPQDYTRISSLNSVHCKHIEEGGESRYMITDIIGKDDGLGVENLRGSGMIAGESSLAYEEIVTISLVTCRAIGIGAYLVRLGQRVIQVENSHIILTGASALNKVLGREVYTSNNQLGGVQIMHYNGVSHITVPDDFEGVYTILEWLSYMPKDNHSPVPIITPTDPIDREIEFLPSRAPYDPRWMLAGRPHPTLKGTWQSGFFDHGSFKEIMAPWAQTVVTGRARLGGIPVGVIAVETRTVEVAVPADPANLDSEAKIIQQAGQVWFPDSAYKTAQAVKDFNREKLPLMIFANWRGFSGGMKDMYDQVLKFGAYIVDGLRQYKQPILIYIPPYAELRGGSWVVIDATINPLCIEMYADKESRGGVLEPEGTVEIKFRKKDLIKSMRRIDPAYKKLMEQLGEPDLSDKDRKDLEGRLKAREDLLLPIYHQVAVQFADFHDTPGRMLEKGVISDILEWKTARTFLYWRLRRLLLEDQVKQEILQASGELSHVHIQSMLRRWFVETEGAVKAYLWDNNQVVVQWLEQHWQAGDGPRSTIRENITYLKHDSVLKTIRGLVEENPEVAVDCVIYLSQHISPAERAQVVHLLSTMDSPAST
Test: Acetyl-CoA carboxylase enzyme assay (malonyl-CoA formation by LC/MS/MS)
Assay type: biochemical
Conditions: recombinant human ACC2 (aa 144-2458); read-out: IC50 ACC2
Description: The cDNA encoding amino acids 144 to 2458 of human acetyl-CoA carboxylase 2 (ACC2, GenBank Accession #NM_001093) was cloned into the SalI and NotI sites of pFastBac1 (Invitrogen; Carlsbad, Calif.). The resulting plasmid was used to generate a recombinant ACC2 baculovirus that was amplified and titered according to the protocols in the Bac-to-Bac baculovirus expression system manual (Invitrogen). […]

CCOc1ccc2cc(S(=O)(=O)N[C@H]3CC[C@H](C(=O)N[C@H](COP(=O)(OC(C)(C)C)OC(C)(C)C)c4ccccc4)CC3)ccc2n1
435 nM

Complete the entry with IC50 for Cc1cc(-c2ccc3cc(S(=O)(=O)N[C@H]4CC[C@H](C(=O)N5CCNCC5c5ccccc5)CC4)ccc3n2)cc(C)n1 (stereo partly drawn)
20 nM

Complete the entry with IC50 for "C[C@@H](NC(=O)[C@H]1CC[C@H](NS(=O)(=O)c2ccc3nc(-c4ccccn4)ccc3c2)CC1)c1ccc(F)cc1"
60 nM
